Listed compounds paired with reported TGI
test system: SK-MEL-5 melanoma; assay: NCI tumour cell line growth inhibition, 48 h
# output: bare number, implied unit µM

| Structure Smiles | Endpoint Unit | Observed |
| --- | --- | --- |
| CCCCN(CCCC)C(=O)/C(CC(=O)c1cccc2ccccc12)=N\NC(=O)c1cc2ccccc2cc1O | µM | 32 |

Below: the item to evaluate.
Challenge: Given the compound "Cc1ccc(C2=CC(=O)/C(=C\C(=O)c3ccc(Cl)cc3)O2)cc1" , what is its reported TGI?
Response given: 33.2

====

Listed compounds paired with reported TGI
tested on: T-47D breast; assay: NCI tumour cell line growth inhibition, 48 h

| Compound | TGI |
| --- | --- |
| O=C1c2ccccc2NC(=S)[C@@H]2CCCN12 | > 100 µM |
| C[C@H]1CCCC(O)C(O)[C@@H]2C[C@H](O[Si](C)(C)C(C)(C)C)C[C@H]2[C@H](O[Si](C)(C)C(C)(C)C)C(O)C(O)C(=O)O1 (stereo not given in full) | > 100 µM |
| CC(=O)c1cnc2oc3ccc(O)cc3c2c1-c1ccccc1 | 80.4 µM |
| COc1cc2ccc1OCc1cccc(n1)COc1ccc(cc1OC)C=Nc1ccc(cc1)N=C2 | > 100 µM |
| N#Cc1nc(C2CCC2)oc1N | > 100 µM |
| S=c1cc(-c2ccc3c(c2)OCO3)s[nH]1 | > 100 µM |
| N#Cc1nc(NC(=O)c2ccccc2C(=O)O)c(C#N)[nH]1 | > 100 µM |
| O=S(=O)(CCCl)c1ccc(Cl)cc1 | 19.9 µM |
| O=C(C(Cl)=C(N1CCOCC1)N1CCOCC1)C(Cl)Cl | > 100 µM |
| CC(C)OC(=O)OCSc1ccccc1N=Cc1cccc([N+](=O)[O-])c1 | > 10 µM |

Challenge: Given the compound "CN(C)C(=O)O[C@H]1CN[C@H](C#Cc2cc3ncnc(Nc4ccc(OCc5cccc(F)c5)c(Cl)c4)c3s2)C1" , what is its reported TGI?
Response given: > 25 µM

Challenge: Given the compound "CO[C@@H]1O[C@H](C(=O)c2ccccc2)[C@H]2OC(C)(C)O[C@@H]12" , what is its reported TGI?
Response given: > 100 µM

====

Listed molecules paired with reported TGI
test system: OVCAR-4 ovarian; test: NCI tumour cell line growth inhibition, 48 h

Worked examples, 6 molecules total:
| Molecule | TGI |
| --- | --- |
| O=c1[nH]c(Nc2cccc(CO)c2)nc2nc[nH]c12 | > 100 µM |
| COc1ccc(CC2COc3cc(O)cc(O)c3C2=O)cc1O (stereo unspecified) | > 100 µM |
| CC(C(=O)O)C(C)(O)C(=O)O (stereo unspecified) | > 100 µM |
| CC(C)(C)OC(=O)NCCCCCCCn1c2c(c3ccccc3c1=O)C(=O)c1ccccc1-2 | > 100 µM |
| Nc1ccc(/C=C/C(=O)NCc2cc3cc(-c4ccc(C(=O)N5CCC(F)(F)CC5)cc4)cc(-c4ccc(F)cc4)c3o2)cn1 | > 100 µM |
| CCOC(=O)/C=C(\C(=O)OCC)n1ccc(=O)n(Cc2cn(COCCOC(C)=O)nn2)c1=O | 38.3 µM |

Challenge: Given the molecule "CN(C)CCC(=O)/C=C\c1ccccc1" , what is its reported TGI?
Response given: 33.3 µM

Challenge: Given the molecule CN(C)CC1CCC(CN(C)C)C1=O (stereo unspecified) , what is its reported TGI?
Response given: 15.8 µM

Challenge: Given the molecule "COc1ccc(OC)c(Cn2cc3c(c2-c2ccccc2)CCc2cnoc2-3)c1" , what is its reported TGI?
Response given: > 100 µM

Challenge: Given the molecule "CN(C)C(=O)O[C@H]1CN[C@H](C#Cc2cc3ncnc(Nc4ccc(OCc5cccc(F)c5)c(Cl)c4)c3s2)C1" , what is its reported TGI?
Response given: > 25 µM

Challenge: Given the molecule "c1c[nH]c(CN2CCOCC2)n1" , what is its reported TGI?
Response given: > 100 µM

Challenge: Given the molecule "O=C(Nc1noc(-c2ccccc2)n1)c1ccccc1CNc1noc(-c2ccccc2)n1" , what is its reported TGI?
Response given: > 100 µM

Challenge: Given the molecule "CCCCn1c(-c2ccc(C(=O)O/N=C(\N)c3ccc4c(c3)OCO4)cc2)nc(-c2ccccc2)c1-c1ccccc1" , what is its reported TGI?
Response given: > 100 µM

Challenge: Given the molecule COc1ccc(/C(=N\NC(=S)NN)C(c2ccc(OC)cc2)C2C(=O)Oc3ccccc32)cc1 (stereo unspecified) , what is its reported TGI?
Response given: > 100 µM

Challenge: Given the molecule "CCOC(=O)c1cc2c3c(c(O)c(OC)c2s1)N(C(=O)c1cc2c4c(c(O)c(OC)c2s1)N(C(C)=O)CC4)CC3" , what is its reported TGI?
Response given: > 100 µM

Challenge: Given the molecule "N#Cc1nc(C2CCC2)oc1N" , what is its reported TGI?
Response given: > 100 µM

Challenge: Given the molecule CC1(C)[C@H]2CC[C@@]13C(=O)N1C(=O)O[C@@H]([C@H]1Cl)C(Cl)(COCc1ccccc1)C(=O)OCCO[C@H]3C2 (stereo partly specified) , what is its reported TGI?
Response given: > 100 µM

Challenge: Given the molecule "CO[C@@H]1O[C@H](C(=O)c2ccccc2)[C@H]2OC(C)(C)O[C@@H]12" , what is its reported TGI?
Response given: > 100 µM

Challenge: Given the molecule "COC(=O)c1cc(C#N)[nH]c1-c1cc(Br)cs1" , what is its reported TGI?
Response given: > 57.7 µM

Challenge: Given the molecule "COc1ccc(-c2cc(-c3ccccc3)[nH]c(=S)c2C#N)cc1" , what is its reported TGI?
Response given: > 100 µM

Challenge: Given the molecule C=C1C(=O)O[C@H]2[C@H]1CC/C(COC(=O)NCC(C)c1ccc(CC(C)C)cc1)=C\CC[C@@]1(C)O[C@@H]21 (stereo partly specified) , what is its reported TGI?
Response given: 6.59 µM
